- System: FMOC02_2 (patient-derived low-grade serous ovarian cancer cells)
- test_name: drug sensitivity score (DSS3, normalised partial AUC of % inhibition dose-response) (DSS (score)); higher = more sensitive (stronger inhibition of viability); extreme values may be limits of the assay
- particulars: 72 h; library: FO5A; assay format: 2D, 384-well, CellTiter-Glo
// thresholds for drug sensitivity score classes: low: < 0.5; intermediate: ≥ 0.5 and < 7; high: ≥ 7

* CC(C)(C)c1cnc(CSc2cnc(NC(=O)C3CCNCC3)s2)o1 [SNS-032] | high
* C=CC(=O)Nc1cccc(Nc2nc(Nc3ccc(OCCOC)cc3)ncc2F)c1 [Spebrutinib] | intermediate
* Cc1nc(NC(=O)N2CCC[C@H]2C(N)=O)sc1-c1ccnc(C(C)(C)C(F)(F)F)c1 [Alpelisib] | intermediate
* COc1ccc(-c2nc(N3CCOCC3)c3sc(CN(C)c4ncc(C(=O)NO)cn4)cc3n2)cn1 [CUDC-907] | high
* O=C(NOCCO)c1ccc2cncn2c1Nc1ccc(I)cc1F [GDC-0623] | high
* CCNc1nc(Nc2cc(F)c(C(=O)N3CCOCC3)cc2OC)ncc1C(F)(F)F [GNE-7915] | low
* CNC(=O)c1ccccc1Nc1nc(Nc2ccc3c(c2OC)CCC[C@H](N2CCN(CCO)CC2)C3)ncc1Cl | high
* Cn1cncc1[C@@](N)(c1ccc(Cl)cc1)c1ccc2c(c1)c(-c1cccc(Cl)c1)cc(=O)n2C [Tipifarnib] | intermediate
* COC(=O)c1ccc2c(c1)[nH]c1ncnc(NCCCN3CCCCC3)c12 [UM729] | intermediate
* CNc1nc(Nc2cn(C(C)(C)C#N)nc2C)ncc1C(F)(F)F [GNE-0877] | low
* CC1(C)CC[C@]2(NC(=O)C(C)(F)F)CC[C@]3(C)[C@H](C(=O)C=C4[C@@]5(C)C=C(C#N)C(=O)C(C)(C)[C@@H]5CC[C@]43C)[C@@H]2C1 [Omaveloxolone] | high
* CCC1=C[C@@H]2CN(C1)Cc1c([nH]c3ccccc13)[C@@](C(=O)OC)(c1cc3c(cc1OC)N(C)[C@H]1[C@@](O)(C(=O)OC)[C@H](OC(C)=O)[C@]4(CC)C=CCN5CC[C@]31[C@@H]54)C2 [Vinorelbine] | high
* COc1cc(N2CCN(C)CC2)ccc1Nc1nccc(-c2cn(C)c3cnccc23)n1 [AZ191] | intermediate
* Cc1ncc(Cl)cc1NCc1ccc(C(=O)N[C@@H](CC2CCCC2)C(=O)NC2CC2)s1 | low
* CN1CCC(COc2cnc(-c3cccc(Cn4nc(-c5cccc(C#N)c5)ccc4=O)c3)nc2)CC1 [Tepotinib] | intermediate
* Nc1cc(F)ccc1NC(=O)c1ccc(CNC(=O)/C=C/c2cccnc2)cc1 [Tucidinostat] | intermediate
* CN(C)C(=N)NC(=N)N [Metformin] | low
* CCN1CCN(Cc2ccc(Nc3ncc(F)c(-c4cc(F)c5nc(C)n(C(C)C)c5c4)n3)nc2)CC1 [Abemaciclib] | intermediate
* CCC1(c2ccc(N)cc2)CCC(=O)NC1=O (configuration not stated) [Aminoglutethimide] | low
* Nc1nc2[nH]cc(CCc3ccc(C(=O)N[C@@H](CCC(=O)O)C(=O)O)cc3)c2c(=O)[nH]1 [Pemetrexed] | low
* COCC1(CO)C(=O)C2CCN1CC2 (configuration not stated) [APR-246] | low
* COc1cc(Nc2ncc3c(n2)-c2ccc(Cl)cc2C(c2c(F)cccc2OC)=NC3)ccc1C(=O)O [Alisertib] | intermediate
* CCc1c2c(nc3ccc(O)cc13)-c1cc3c(c(=O)n1C2)COC(=O)[C@]3(O)CC [SN-38] | high
* CNc1nc(-c2ccc3c(N)n[nH]c3c2)cc(N2C[C@@H](C(=O)NC3CCCCC3)CC[C@H]2C)n1 | high
* COc1cc(Nc2ncc(F)c(Nc3ccc4c(n3)NC(=O)C(C)(C)O4)n2)cc(OC)c1OC [Tamatinib] | high
* COc1cccc2c1C(=O)c1c(O)c3c(c(O)c1C2=O)C[C@@](O)(/C(CO)=N/NC(=O)CCCCCN1C(=O)C=CC1=O)C[C@@H]3O[C@H]1C[C@H](N)[C@H](O)[C@H](C)O1 [Aldoxorubicin] | intermediate
* CCCc1cc(C)[nH]c(=O)c1CNC(=O)c1cc(-c2ccnc(N3CCN(C)CC3)c2)cc2c1cnn2C(C)C [GSK343] | low
* CNC(=O)[C@@H](NC(=O)[C@H](CC(C)C)[C@H](O)C(=O)NO)C(C)(C)C [Marimastat] | low
* CCS(=O)(=O)N1CCN(c2ccc(Nc3ncc(C(N)=O)c(NC4CC4)n3)cc2)CC1 [Cerdulatinib] | low
* Cn1c(=O)n(-c2ccc(C(C)(C)C#N)cc2)c2c3cc(-c4cnc5ccccc5c4)ccc3ncc21 [Dactolisib] | high
* COC(=O)c1ccc2c(c1)NC(=O)/C2=C(\Nc1ccc(N(C)C(=O)CN2CCN(C)CC2)cc1)c1ccccc1 [Nintedanib] | high
